test system: Liver (WRL) cancer cell line; experiment: MTT cytotoxicity assay, WRL; assay type: cell-based, human; conditions: MTT assay, WRL liver cancer cells
Mark rule met only for WRL IC50 values smaller than 1 µg/mL; exact matches and larger values are rule not met.

COC(=O)C1=CO[C@@H](O[C@@H]2O[C@H](COC(c3ccccc3)(c3ccccc3)c3ccccc3)[C@@H](O)[C@H](O)[C@H]2O)[C@@H]2[C@@H](C)[C@@H](O)C[C@H]12 :: rule not met
COC(=O)C1=COC(O[C@@H]2O[C@H](COC(=O)C=C(C)C)[C@@H](OC(C)=O)[C@H](OC(C)=O)[C@H]2OC(C)=O)C2C1CC(OC(C)=O)C2C (some centres unmarked) :: rule not met
CCCCCCCCCCCCCC(=O)OC[C@H]1O[C@@H](OC2OC=C(C(=O)OC)C3CC(OC(C)=O)C(C)C23)[C@H](OC(C)=O)[C@@H](OC(C)=O)[C@@H]1OC(C)=O (some centres unmarked) :: rule not met
COC(=O)C1=COC(O[C@@H]2O[C@H](COC(=O)c3cc(OC)c(OC)c(OC)c3)[C@@H](OC(C)=O)[C@H](OC(C)=O)[C@H]2OC(C)=O)C2C1CC(OC(C)=O)C2C (some centres unmarked) :: rule met

Query: Identify whether the compound COC(=O)C1=COC(O[C@@H]2O[C@H](COC(=O)c3cccc([N+](=O)[O-])c3)[C@@H](OC(C)=O)[C@H](OC(C)=O)[C@H]2OC(C)=O)C2C1CC(OC(C)=O)C2C (some centres unmarked) records WRL IC50 below 1 µg/mL.
Result: rule not met

* * *

tested on: Suspension Colon (COLO-320) cancer cell line; test: MTT cytotoxicity assay, COLO-320; type: cell-based, human; conditions: MTT assay, COLO-320 suspension colon cancer cells
Attribute: COLO-320 IC50
State the answer as a number, implicitly in µg/mL.

The examples below pair each entry with its known result.
CCCCCCCCCCCC(=O)OC[C@H]1O[C@@H](OC2OC=C(C(=O)OC)C3CC(OC(C)=O)C(C)C23)[C@H](OC(C)=O)[C@@H](OC(C)=O)[C@@H]1OC(C)=O (stereo partly drawn) :: 0.04
COC(=O)C1=COC(O[C@@H]2O[C@H](COC(=O)C=C(C)C)[C@@H](OC(C)=O)[C@H](OC(C)=O)[C@H]2OC(C)=O)C2C1CC(OC(C)=O)C2C (stereo partly drawn) :: 0.08

Attention now shifts to the item below.
Query: Give its COLO-320 IC50 value. Item: CCCCCCCCCCCCCC(=O)OC[C@H]1O[C@@H](OC2OC=C(C(=O)OC)C3CC(OC(C)=O)C(C)C23)[C@H](OC(C)=O)[C@@H](OC(C)=O)[C@@H]1OC(C)=O (stereo partly drawn)
Result: 30.00

* * *

test system: Suspension Colon (COLO-320) cancer cell line; assay: MTT cytotoxicity assay, COLO-320; type: cell-based, human; settings: MTT assay, COLO-320 suspension colon cancer cells
measurement.kind: COLO-320 IC50 (µg/mL)
State the answer as a number, implicitly in µg/mL.

The examples below pair each entry with its known result.
COC(=O)C1=COC(O[C@@H]2O[C@H](COC(c3ccccc3)(c3ccccc3)c3ccccc3)[C@@H](OC(C)=O)[C@H](OC(C)=O)[C@H]2OC(C)=O)C2C1CC(OC(C)=O)C2C (some centres unmarked) :: 0.82
COC(=O)C1=COC(O[C@@H]2O[C@H](COC(=O)c3cc(OC)c(OC)c(OC)c3)[C@@H](OC(C)=O)[C@H](OC(C)=O)[C@H]2OC(C)=O)C2C1CC(OC(C)=O)C2C (some centres unmarked) :: 0.04
COC(=O)C1=CO[C@@H](O[C@@H]2O[C@H](COC(c3ccccc3)(c3ccccc3)c3ccccc3)[C@@H](O)[C@H](O)[C@H]2O)[C@@H]2[C@@H](C)[C@@H](O)C[C@H]12 :: 0.25

Query: Give its COLO-320 IC50 value. Item: COC(=O)C1=COC(O[C@@H]2O[C@H](COC(=O)c3cccc([N+](=O)[O-])c3)[C@@H](OC(C)=O)[C@H](OC(C)=O)[C@H]2OC(C)=O)C2C1CC(OC(C)=O)C2C (some centres unmarked)
Result: 0.44

Query: Give its COLO-320 IC50 value. Item: CCC(=O)OC[C@H]1O[C@@H](OC2OC=C(C(=O)OC)C3CC(OC(C)=O)C(C)C23)[C@H](OC(C)=O)[C@@H](OC(C)=O)[C@@H]1OC(C)=O (some centres unmarked)
Result: 0.85
